Molecular target: VT
Assay: luminescence complementation
Conditions: chains peptide; modification not given
pKd: −log10 of the molar value.
observation-type: pKd

INSERT INTO results (binder, recorded_result) VALUES
  ('SGWRLFKKISN [NLpep81]', 6.86);

Every entry's value here was drawn from patent US20200292534A1.
